The values you see were collected from paper PMC12469269.

Target: Recombinant Human Vimentin Protein, CF (human, UniProt P08670 1-466)
Sequence (P08670 whole entry): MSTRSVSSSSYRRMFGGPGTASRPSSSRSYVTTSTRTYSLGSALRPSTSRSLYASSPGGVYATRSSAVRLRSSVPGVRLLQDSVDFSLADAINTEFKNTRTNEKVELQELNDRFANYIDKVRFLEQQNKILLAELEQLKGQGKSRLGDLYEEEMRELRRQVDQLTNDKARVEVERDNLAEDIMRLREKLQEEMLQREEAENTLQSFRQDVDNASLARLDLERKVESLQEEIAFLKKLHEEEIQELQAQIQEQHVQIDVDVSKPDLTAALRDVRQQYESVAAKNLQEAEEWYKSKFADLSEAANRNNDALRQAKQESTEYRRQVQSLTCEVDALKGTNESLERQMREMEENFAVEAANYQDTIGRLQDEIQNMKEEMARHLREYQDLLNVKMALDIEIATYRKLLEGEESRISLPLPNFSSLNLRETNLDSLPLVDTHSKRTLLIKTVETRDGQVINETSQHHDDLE
Assay: SPR
ASSAY_ENDPOINT: Kd
Please report the result as a number followed by the unit.

So, VGFPV [SMRwt peptide] ? Its Kd was 8.8 µM
